Below, each entry is listed alongside its reported MA - drop of optical density.
test system: thrombocytes; assay: ADP-induced aggregation of thrombocytes after intravenous administration (in vivo); set-up: species or system rabbit; conditions: 60.0 mg/kg intravenously, after 60 minutes; control 48.6 ± 1.3
Express it in %; write the number only.

Some solved entries appear below for comparison.
O=c1[nH][nH]c(=O)c2c(Br)ncnc12.[K] | 46.2
Nc1cnc2c(=O)n([C@@H]3O[C@H](CO)[C@@H](O)[C@H]3O)[nH]c(=O)c2n1.[Na] | 47.3
Nc1cccc2c(=O)[nH][nH]c(=O)c12.[Na] | 44.7

Proceed to the following item.
Measured MA - drop of optical density of Nc1ccnc2c(=O)n([C@@H]3O[C@H](CO)[C@@H](O)[C@H]3O)[nH]c(=O)c12 : 47.8

* * *

experiment: Morphine abstinence model: indicator enzymes ALT, AST, γ-GTP in blood plasma; details: Control + compound, 20.0 mg/kg intramuscularly three times a day; control 179.881 ± 11.94
Below, each entry is listed alongside its reported AST in blood plasma, Ci.
Express it in mE/l; write the number only.

Some solved entries appear below for comparison.
O=c1[nH][nH]c(=O)c2c(Br)ncnc12.[K] | 174.82
O=c1[nH][nH]c(=O)c2ncccc12.[Li] | 176.18
O=c1[nH][nH]c(=O)c2nccnc12.[Li] | 177.34

Proceed to the following item.
Measured AST in blood plasma, Ci of Nc1cccc2c(=O)[nH][nH]c(=O)c12.[Na] : 173.46

* * *

test: Chronic toxicity of suppositories: indexes of peripheral blood; assay type: in vivo, rats; conditions: male rats, suppositories rectally, 50 mg/kg, 1 month; control 5.6 ± 0.1
Below, each entry is listed alongside its reported Erythrocytes.
Express it in mln/mm^3; write the number only.

O=c1[nH]n([C@@H]2O[C@H](CO)[C@@H](O)[C@H]2O)c(=O)c2nc(O)cnc12.[Na].[Na] | 5.7
Nc1cccc2c(=O)[nH][nH]c(=O)c12.[Na] | 5.7
O=c1[nH][nH]c(=O)c2c(Br)ncnc12.[K] | 5.6

Measured Erythrocytes of O=C([O-])c1ncnc2c(=O)n([C@@H]3O[C@H](CO)[C@@H](O)[C@H]3O)[nH]c(=O)c12.[Na+] : 5.6

* * *

system: synthase of nitrogen oxide (NOC); experiment: Morphine abstinence model: activity of synthase of nitrogen oxide (NOC), radiometric [3H]L-citrulline method; assay type: in vivo, rats Wistar; conditions: Control + Compound, 20.0 mg/kg intramuscularly; control 5.37 ± 0.20
EXPERIMENTAL READOUT: Activity of NOC: Hypothalamus

Measured Activity of NOC: Hypothalamus of Nc1cccc2c(=O)[nH][nH]c(=O)c12.[Na] : 5.45 ± 0.24 pmol/min/mg of protein

Measured Activity of NOC: Hypothalamus of O=c1[nH][nH]c(=O)c2ncccc12.[Li] : 5.93 ± 0.27 pmol/min/mg of protein

Measured Activity of NOC: Hypothalamus of O=c1[nH][nH]c(=O)c2c(Br)ncnc12.[K] : 5.61 ± 0.22 pmol/min/mg of protein

Measured Activity of NOC: Hypothalamus of O=c1[nH][nH]c(=O)c2nccnc12.[Li] : 5.88 ± 0.27 pmol/min/mg of protein

* * *

Below, each entry is listed alongside its reported −E1/2.
assay: Electrochemical activity: polarographic reduction on mercury dripping electrode; assay type: physicochemical; conditions: pH 7.0; vs SCE, 37° C., forward trace; average for the group of compounds
Express it in V; write the number only.

Some solved entries appear below for comparison.
Nc1cccc2c(=O)n([C@@H]3O[C@H](CO)[C@@H](O)[C@H]3O)[nH]c(=O)c12.[Na] | 0.092
O=c1[nH]n([C@@H]2O[C@H](CO)[C@@H](O)[C@H]2O)c(=O)c2nc(O)cnc12.[Na].[Na] | 0.16
Nc1ncc2c(=O)[nH][nH]c(=O)c2n1 | 0.08

Proceed to the following item.
Measured −E1/2 of COP(=O)(OC)C(C)(C)CC(C)=O [Dimesphosphon, reference compound] : 0.175
